Molecular target: Muscle, skeletal receptor tyrosine-protein kinase (Homo sapiens) (UniProt O15146);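 also: values are mean inhibition of MuSK from the GSK PKIS kinase screening panel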
Sequence (O15146 whole entry): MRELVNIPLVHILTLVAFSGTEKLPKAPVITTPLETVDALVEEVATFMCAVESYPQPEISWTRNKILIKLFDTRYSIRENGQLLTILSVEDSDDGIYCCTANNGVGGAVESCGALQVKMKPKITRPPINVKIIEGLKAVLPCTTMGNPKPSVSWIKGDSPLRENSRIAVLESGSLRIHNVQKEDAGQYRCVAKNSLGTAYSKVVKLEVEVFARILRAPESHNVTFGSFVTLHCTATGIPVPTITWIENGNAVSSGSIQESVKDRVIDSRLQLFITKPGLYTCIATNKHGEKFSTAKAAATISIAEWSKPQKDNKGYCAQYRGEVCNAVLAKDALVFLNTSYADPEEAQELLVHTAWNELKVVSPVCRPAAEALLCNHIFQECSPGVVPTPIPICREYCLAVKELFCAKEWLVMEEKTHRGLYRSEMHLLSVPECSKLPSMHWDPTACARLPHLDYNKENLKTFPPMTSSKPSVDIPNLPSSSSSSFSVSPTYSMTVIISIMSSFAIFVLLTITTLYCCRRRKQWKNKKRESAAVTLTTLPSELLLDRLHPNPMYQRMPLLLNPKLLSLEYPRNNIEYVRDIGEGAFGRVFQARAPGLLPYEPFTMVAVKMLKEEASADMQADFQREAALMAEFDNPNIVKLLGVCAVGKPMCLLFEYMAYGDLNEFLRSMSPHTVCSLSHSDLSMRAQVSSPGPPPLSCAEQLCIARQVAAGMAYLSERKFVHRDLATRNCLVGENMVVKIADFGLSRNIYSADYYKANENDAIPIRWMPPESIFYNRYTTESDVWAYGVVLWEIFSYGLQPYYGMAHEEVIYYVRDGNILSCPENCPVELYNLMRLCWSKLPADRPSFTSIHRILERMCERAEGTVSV
Conditions: at 0.1 µM
Attribute: inhibition
MEASURED QUANTITY: inhibition (%)

> print(dat)
                           molecular.string  quantitative.readout
1  CN(C)CCOc1ccc(-c2cc(-c3ccc4c(c3)CCC4=NO)c(-c3ccncc3)o2)cc1                 -0.04
2  CN1CCN(CCCNc2nc3ccc(Oc4ccc(NC(=O)Nc5cc(C(F)(F)F)ccc5F)cc4)cc3[nH]2)CC1                    15
3  Fc1ccc(-c2ncn(CCCN3CCOCC3)c2-c2ccncc2)cc1                 -0.13
4  C#Cc1cccc(Nc2ncnc3ccc(OCCCCNCCS(C)(=O)=O)cc23)c1                  1.86
5  CCc1ccc(Oc2nccc(-c3c(-c4ccc(F)cc4)ncn3C3CCNCC3)n2)cc1                   3.3
